- MEASURED TARGET: human ENT1 (Homo sapiens)
- Sequence (Q99808 whole entry): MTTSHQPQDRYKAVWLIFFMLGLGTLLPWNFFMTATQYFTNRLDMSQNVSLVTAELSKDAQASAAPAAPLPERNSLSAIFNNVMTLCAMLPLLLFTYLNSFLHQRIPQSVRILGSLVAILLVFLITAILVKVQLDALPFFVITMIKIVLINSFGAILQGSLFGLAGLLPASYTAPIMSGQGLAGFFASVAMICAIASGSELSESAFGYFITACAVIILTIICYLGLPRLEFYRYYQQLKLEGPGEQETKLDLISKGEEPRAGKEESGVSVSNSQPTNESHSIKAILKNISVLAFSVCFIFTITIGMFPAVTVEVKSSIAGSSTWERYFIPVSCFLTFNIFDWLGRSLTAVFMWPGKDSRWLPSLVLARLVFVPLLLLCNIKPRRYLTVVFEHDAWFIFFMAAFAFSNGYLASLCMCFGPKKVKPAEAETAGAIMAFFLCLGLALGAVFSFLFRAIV
- ASSAY PROTOCOL: ENT1 binding assay (competition with Sahenta-DY647 on JAR cells)
- Design: JAR cells expressing ENT1 were bought from ATCC® (HTB-144TM); host or cells: JAR cells (human choriocarcinoma line; whole cells)
- RUN CONDITIONS: competition with Sahenta-DY647 100 nM, 4° C.
pIC50: −log10 of the molar value.
Listed below: pIC50 values for each entry.

{"COMPOUND": "COc1cc(C(=O)O[C@@H]2CCCn3ncc4c(Cl)cc(cc43)C(=O)NCCCN3CCCN(CC2)CC3)cc(OC)c1OC", "MEASURED TARGET": "human ENT1 (Homo sapiens)", "pIC50": "6.30 to 7.70"}
{"COMPOUND": "COc1cc2cc(c1OC)OCCCC(OC(=O)c1cccc(C#N)c1)CCN1CCCN(CCCOC2=O)CC1 (stereo not shown)", "MEASURED TARGET": "human ENT1 (Homo sapiens)", "pIC50": "7.70 to 9.00"}
{"COMPOUND": "COc1cc2cc(c1OC)OCCCC(OC(=O)C1CCN(C)CC1)CCN1CCCN(CCCOC2=O)CC1 (stereo not shown)", "MEASURED TARGET": "human ENT1 (Homo sapiens)", "pIC50": "< 6.30"}
{"COMPOUND": "COc1cc(C(=O)O[C@@H]2CCCOc3cc(cc(OC)c3OC)C(=O)NCCCN3CCCN(CC2)CC3)cc(OC)c1OC", "MEASURED TARGET": "human ENT1 (Homo sapiens)", "pIC50": "7.70 to 9.00"}
{"COMPOUND": "COc1cc(C(=O)O[C@@H]2CCCOc3cc(cc(OC)c3OC)C(=O)N(C)CCCN3CCCN(CC2)CC3)cc(OC)c1OC", "MEASURED TARGET": "human ENT1 (Homo sapiens)", "pIC50": "7.70 to 9.00"}
{"COMPOUND": "COc1cc2cc(c1OC)OCCCC(OC(=O)c1ccc(O)cc1)CCN1CCCN(CCCOC2=O)CC1 (stereo not shown)", "MEASURED TARGET": "human ENT1 (Homo sapiens)", "pIC50": "7.70 to 9.00"}
{"COMPOUND": "COc1cc2cc(c1OC)OCCCC(OC(=O)CCOc1ccc(F)cc1)CCN1CCCN(CCCOC2=O)CC1 (stereo not shown)", "MEASURED TARGET": "human ENT1 (Homo sapiens)", "pIC50": "7.70 to 9.00"}
